target: GABA-A receptor; anion channel; test: Displacement of [3H]- muscimol in cerebellar tissue of male rats
measured.quantity: pIC50
A value of pIC50 is the negative decimal logarithm of a concentration given in moles per litre.

Dear colleague, please send me the reported pIC50 for NCc1cc(O)no1 when you can. 8.52
